# Tested on: P. falciparum 3D7 growth, pLDH absorbance
# Assay Notes: blood-stage malaria parasite growth potency – strain 3D7, dose response (AID 2305)
Parameter: pIC50
As a rule, pIC50 stands for the negative log10 of the concentration, concentration in M.

State the recorded pIC50 for this entry: `O=C(Nc1c(F)cccc1F)c1cccc(-c2nn3ccccc3c2-c2ccnc(Nc3cccc(-c4cnco4)c3)n2)c1` 6.44

State the recorded pIC50 for this entry: `N#Cc1ccc(N(CCOC(=O)c2ccc(Br)s2)Cc2ccccc2C(F)(F)F)cc1C(F)(F)F` 5.97

State the recorded pIC50 for this entry: `COc1ccc(Nc2cc(C)c3cc(NC(=O)c4ccncc4)ccc3n2)cc1` 6.04

State the recorded pIC50 for this entry: COc1nc(N)ncc1C(=O)NC1CN2CCC1CC2 (stereo not given) 6.62

State the recorded pIC50 for this entry: `Cc1cccc(CN2CCCN(Cc3cccc(C(=O)Nc4ccc(C(C)(C)C)cc4)c3)CC2)c1` 6.03

---

# System: P. falciparum 3D7 growth, pLDH absorbance
# Assay Notes: blood-stage malaria parasite growth potency – strain 3D7, dose response (AID 2305)
Parameter: IC50 (nM)
Give your result in nM as a bare value.

State the recorded IC50 for this entry: `Cc1cccc2[nH]c(-c3ccc(-c4cccc(NC(=O)CN5CCN(C)CC5)c4)s3)nc12` 830

State the recorded IC50 for this entry: `COc1cccc(Nc2nc(C)cc(NCc3ccc(-n4ccnc4)cc3)n2)c1` 960

State the recorded IC50 for this entry: `O=C(Nc1ccc(CN2CCN(S(=O)(=O)c3ccc(Cl)s3)CC2)cc1)c1cccs1` 890

State the recorded IC50 for this entry: OC1CCCN(Cc2cccc(-c3ccc(-c4nc5ccc(F)cc5[nH]4)cc3)c2)C1 (stereo not given) 780

State the recorded IC50 for this entry: `O=C(Nc1ccc(CCN2CCC(c3nc(COCC(F)(F)F)c(-c4ccccc4)o3)CC2)cc1)c1ccc(F)cc1` 1970

---

# System: P. falciparum 3D7 growth, pLDH absorbance
# Assay Notes: blood-stage malaria parasite growth potency – strain 3D7, dose response (AID 2305)
Parameter: IC50 (nM)
Give your result in nM as a bare value.

State the recorded IC50 for this entry: `O=C(CCN(Cc1ccco1)c1nc(-c2ccc(F)cc2)nc2ccccc12)NC1CC1` 1580

State the recorded IC50 for this entry: C[C@H](NC(=O)[C@H](Cc1ccccc1)NC(=O)OC(C)(C)C)C(=O)N[C@@H](CC1CCCCC1)C(O)CN (some centres undefined) 730

State the recorded IC50 for this entry: `CC(=O)N/N=C/[C@H](CCc1ccccc1)NC(=O)[C@H](CC(C)C)NC(=O)c1ccc(OCCN2CCOCC2)cc1` 220

State the recorded IC50 for this entry: `COc1cc2nc(N3CCN(C(=O)c4ccco4)CC3)nc(NCc3ccccc3)c2cc1OC` 170

---

Exercise: for every item that follows, state its recorded pIC50.
# System: P. falciparum 3D7 growth, pLDH absorbance
# Assay Notes: blood-stage malaria parasite growth potency – strain 3D7, dose response (AID 2305)
As a rule, pIC50 stands for the negative log10 of the concentration, concentration in M.

State the recorded pIC50 for this entry: O=C(NC1CCC(CCN2Cc3cccc(C(F)(F)F)c3C2)CC1)c1cccc(-c2cccnc2)c1 (centres undefined) 5.99

State the recorded pIC50 for this entry: `O=C(CCc1cnc[nH]1)Nc1ccc(-c2ccc(-c3nc4ccccc4[nH]3)cc2)cc1` 6.15

State the recorded pIC50 for this entry: `N#Cc1cccc(NC(=O)NC2CCN(CCCCCNC(=O)/C=C/c3ccc(Cl)c(Cl)c3)CC2)c1` 6.15

State the recorded pIC50 for this entry: `FC(F)(F)c1ccc2nc(-c3ccc(-c4cccc(CN5CCN(CCN6CCOCC6)CC5)c4)cc3)[nH]c2c1` 6.80

State the recorded pIC50 for this entry: `O=[N+]([O-])c1ccc(/C=N/Nc2cc(-c3ccccc3)nc3ccccc23)o1` 6.07

State the recorded pIC50 for this entry: O=C(/C=C/c1ccsc1)NC1CCC(CN2CCC(c3c[nH]c4ccccc34)CC2)CC1 (centres undefined) 5.95

State the recorded pIC50 for this entry: `CCN(CCCN1CCCCC1)c1nc(C)cc(Nc2ccc(Cl)cc2)n1` 6.08

State the recorded pIC50 for this entry: O=C(/C=C/c1ccc(Cl)c(Cl)c1)NCCCCCN1CCC(NC(=O)Nc2ccc(C(F)(F)F)cc2)C1 (centres undefined) 6.29

State the recorded pIC50 for this entry: `Cc1c(O)cccc1Nc1ccnc2ccc(C(F)(F)F)cc12` 7.52

State the recorded pIC50 for this entry: `Cc1cccc2[nH]c(-c3cccc(-c4cccc(NC(=O)CNC(=O)c5ccc(O)cc5)c4)c3)nc12` 6.00

State the recorded pIC50 for this entry: `Oc1ccc(CCNc2nc(NCCCOc3ccccc3-c3ccncc3)nc(N3CCNCC3)n2)cc1` 5.95

State the recorded pIC50 for this entry: `COc1cccc(CNC[C@@H](O)[C@H](Cc2ccccc2)NC(=O)c2cc(OC(C)C)cc(N3CCCCS3(=O)=O)c2)c1` 6.14

State the recorded pIC50 for this entry: `Cc1nc2nc(N)nc(N)c2c(C)c1Cc1cccc(F)c1` 6.47

State the recorded pIC50 for this entry: `CCn1c2ccccc2c2cc(Cc3cnc(N)nc3N)ccc21` 6.66

State the recorded pIC50 for this entry: `CN(C)CCNC(=O)c1ccc2c(c1)n(C1CCN(S(=O)(=O)c3ccc(-c4ccccc4)cc3)CC1)c(=O)n2CC1CCCCC1` 6.21

State the recorded pIC50 for this entry: `Cc1cc(OCCCNc2nc(NCCc3ccc(O)cc3)nc(N3CCNCC3)n2)c(Cl)c(C)c1Cl` 6.02

State the recorded pIC50 for this entry: `CCN1CCN(Cc2ccc(-c3ccc(NS(=O)(=O)c4cccc5cccnc45)cc3)cc2)CC1` 6.04

State the recorded pIC50 for this entry: `COc1ccc(CCOc2c(C)nc(N)nc2N)cc1OC` 7.15

State the recorded pIC50 for this entry: `Nc1c2c(nc3ccc(NC(=O)c4ccccc4)cc13)CCCC2` 6.21

---

# System: P. falciparum 3D7 growth, pLDH absorbance
# Assay Notes: blood-stage malaria parasite growth potency – strain 3D7, dose response (AID 2305)
Lab note: cut-off is 0.8 µM. Strictly less in IC50 is TRUE. Exactly 0.8 µM or more is FALSE.

Report whether reported IC50 is lower than 0.8 µM (strictly) for `Oc1ccccc1-c1nc2cccnc2n1CCc1cccc(C(F)(F)F)c1` FALSE

Report whether reported IC50 is lower than 0.8 µM (strictly) for `CCOC(C(=O)OCCN(C(C)C)C(C)C)(c1ccccc1)c1ccccc1` FALSE

Report whether reported IC50 is lower than 0.8 µM (strictly) for `Clc1ccc(CNc2nc(NCCc3cnc[nH]3)nc(NC3CCCCC3)n2)cc1` TRUE

Report whether reported IC50 is lower than 0.8 µM (strictly) for `CCOc1cc(C=NNc2nc(C)cc(-n3nc(C)cc3C)n2)ccc1O` FALSE

Report whether reported IC50 is lower than 0.8 µM (strictly) for `CCOc1ccccc1N1CCN(CCCNC(=O)/C(=C/C=C/c2cc3cc(Cl)c(Cl)cc3[nH]2)OC)CC1` FALSE

Report whether reported IC50 is lower than 0.8 µM (strictly) for O=C(CCC1CCCC1)N(Cc1ccc(-c2ccc(CNCCc3ccccn3)cc2)cc1)CC1CCCCN1 (centres undefined) FALSE

Report whether reported IC50 is lower than 0.8 µM (strictly) for `Clc1cccc(C=NNc2nc(Nc3ccccc3)nc(Nc3ccccc3)n2)c1` FALSE

Report whether reported IC50 is lower than 0.8 µM (strictly) for CCN1C(=O)C(CC(=O)Nc2cccc(Cl)c2)N(Cc2ccc(OC)c(OC)c2)C1=S (centres undefined) TRUE

Report whether reported IC50 is lower than 0.8 µM (strictly) for COC(=O)Cn1c(C2CCN(CC3CCC(NC(=O)/C=C/c4ccc(Cl)c(Cl)c4)CC3)CC2)nc2ccccc21 (centres undefined) FALSE

---

# Test system: P. falciparum 3D7 growth, pLDH absorbance
# Assay Notes: blood-stage malaria parasite growth potency – strain 3D7, dose response (AID 2305)
Parameter: pIC50
As a rule, pIC50 stands for the negative log10 of the concentration, concentration in M.

State the recorded pIC50 for this entry: NC1CCCN(Cc2ccc(-c3ccc(-c4nc5ccc(F)cc5[nH]4)s3)cc2)C1 (centres undefined) 6.74

State the recorded pIC50 for this entry: `Cc1noc(C)c1-c1cccc(CNCc2ccc(-c3ccc(-c4nc5ccccc5[nH]4)s3)cc2)c1` 6.25

State the recorded pIC50 for this entry: `CCC(O)(C#Cc1c(C)nc(N)nc1N)CC` 6.19

State the recorded pIC50 for this entry: `CCCCNCc1ccc(-c2nc(CN(C(=O)Nc3cc([N+](=O)[O-])ccc3F)C3Cc4ccccc4C3)cs2)cc1` 5.96

State the recorded pIC50 for this entry: CC(C)(C)c1ccc(-c2cc(C(=O)N[C@@H](CO)C(=O)O)on2)cc1 (tested in a mixture with another compound) 6.01

State the recorded pIC50 for this entry: `CCn1c(=O)c(C(=O)Nc2cc(Cl)c(OC)cc2OC)nc2ccccc21` 6.62

State the recorded pIC50 for this entry: Cc1cc(N2CCCC2)nc(Nc2ccc(NC(=O)C(C)Oc3ccccc3)cc2)n1 (centres undefined) 5.94

State the recorded pIC50 for this entry: `Cc1cc(N)c2cc(NC(=O)/C=C/c3ccc([N+](=O)[O-])cc3)ccc2n1` 6.17

State the recorded pIC50 for this entry: `CCOc1cc(C)ccc1N(C1CCN(CCCCNC(=O)c2ccc(-c3ccc(C(F)(F)F)cc3)cc2)CC1)S(=O)(=O)c1ccccc1` 5.99

State the recorded pIC50 for this entry: CN1CCc2cc(CN3C[C@]4(C)C[C@H]3CC(C)(C)C4)c(O)cc2C(c2ccccc2)C1 (some centres undefined) 6.14

State the recorded pIC50 for this entry: COCC(C)n1c(SC(C)C(=O)Nc2cc([N+](=O)[O-])ccc2Cl)nc2ccccc2c1=O (centres undefined) 6.64

State the recorded pIC50 for this entry: `N#Cc1cccc(C(=O)Nc2cccc(-c3ccc(CN4CCC(O)CC4)cc3)c2)c1` 5.89

State the recorded pIC50 for this entry: O=C(CN1CCC2(CCC1=O)CC(=O)c1ccccc1O2)NCCN1CCOCC1 (centres undefined) 6.66

State the recorded pIC50 for this entry: `OC1(CNCc2ccccc2)CCN(CCc2c[nH]c3ccc(F)cc23)CC1` 6.15

State the recorded pIC50 for this entry: `Cc1cccc2[nH]c(-c3cccc(-c4ccc(NC(=O)COC(C)C)cc4)c3)nc12` 5.92

State the recorded pIC50 for this entry: O=[N+]([O-])c1cccc(C(Nc2ccccn2)c2ccc3cccnc3c2O)c1 (centres undefined) 5.88

State the recorded pIC50 for this entry: `Cc1cccc2[nH]c(-c3ccc(-c4cccc(CNCc5ccccc5)c4)s3)nc12` 6.13

State the recorded pIC50 for this entry: COc1cc(C)c(C(O)CNC(C)CCc2ccccc2)cc1C (centres undefined) 6.14

State the recorded pIC50 for this entry: `Oc1ccc(CCCNc2nc(NCc3cccc4ccccc34)nc(N3CCCNCC3)n2)cc1` 6.00
